# target: Caspase-3 (Homo sapiens)
# Sequence (P42574 29-175 limits assumed): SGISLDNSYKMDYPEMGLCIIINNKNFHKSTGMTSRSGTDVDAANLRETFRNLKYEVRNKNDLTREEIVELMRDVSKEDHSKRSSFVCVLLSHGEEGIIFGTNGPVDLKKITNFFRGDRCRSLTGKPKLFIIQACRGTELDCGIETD
# Sequence (P42574 176-277 limits assumed): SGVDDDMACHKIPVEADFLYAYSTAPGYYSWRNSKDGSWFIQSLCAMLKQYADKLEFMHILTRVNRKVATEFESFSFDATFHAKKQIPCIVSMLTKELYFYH
# experimentNotes: Affinity Biochemical interaction: (enzymatic assay (fluorogenic substrate cleavage)) EUB0002196a CASP3
# Type: functional
# Parameters: mode of action Inhibitor, recommended concentration 1 uM
pKi: −log10 of the molar value. Residues, ends and D or L forms follow the SMILES beside them.

>  <molecule>
CC(=O)N[C@H](C(=O)N[C@@H](CC(=O)O)C(=O)N[C@H](C(=O)N[C@@H](C)C(=O)N[C@H](C=O)CC(=O)O)C(C)C)C(C)C (Ac-VDVAD-aldehyde)

>  <target>
Caspase-3 (Homo sapiens)

>  <pKi>
9.00

$$$$

###

# target: 3',5'-cyclic-AMP phosphodiesterase 4D (Homo sapiens, UniProt Q08499)
# Sequence (Q08499 whole entry): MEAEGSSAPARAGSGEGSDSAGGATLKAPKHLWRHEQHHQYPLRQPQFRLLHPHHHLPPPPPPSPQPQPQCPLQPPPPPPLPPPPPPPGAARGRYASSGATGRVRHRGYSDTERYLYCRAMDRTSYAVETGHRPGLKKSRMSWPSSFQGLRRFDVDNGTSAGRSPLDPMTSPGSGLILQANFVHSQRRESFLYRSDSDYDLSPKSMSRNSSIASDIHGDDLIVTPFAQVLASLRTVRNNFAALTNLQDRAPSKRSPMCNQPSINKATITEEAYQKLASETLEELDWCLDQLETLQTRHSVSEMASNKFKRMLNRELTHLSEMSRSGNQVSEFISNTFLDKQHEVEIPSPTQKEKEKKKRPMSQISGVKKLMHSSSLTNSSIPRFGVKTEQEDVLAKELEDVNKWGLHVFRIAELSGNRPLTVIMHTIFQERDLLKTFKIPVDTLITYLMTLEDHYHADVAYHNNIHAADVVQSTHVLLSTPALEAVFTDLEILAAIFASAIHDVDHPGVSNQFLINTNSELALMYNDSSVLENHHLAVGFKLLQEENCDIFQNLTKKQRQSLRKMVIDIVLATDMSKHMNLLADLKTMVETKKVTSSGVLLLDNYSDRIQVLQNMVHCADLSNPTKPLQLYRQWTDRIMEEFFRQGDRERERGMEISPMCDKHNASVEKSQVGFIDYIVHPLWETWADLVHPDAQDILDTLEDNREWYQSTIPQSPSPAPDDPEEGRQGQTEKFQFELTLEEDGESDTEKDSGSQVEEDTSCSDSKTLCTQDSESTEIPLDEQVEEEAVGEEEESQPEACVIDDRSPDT
# experimentNotes: Affinity Biochemical interaction: (inhibition of enzyme activity with [3H]cGMP or [3H]cAMP as the substrate) EUB0002477a PDE4D
# Format: functional
# Parameters: mode of action Inhibitor, recommended concentration 1 uM
pIC50: −log10 of the molar value.

>  <smiles>
C[C@H](Nc1nc2c(cnn2C2CCCC2)c(=O)[nH]1)c1ccc(Cl)cc1

>  <pIC50>
8.89

$$$$

###

# target: UniProt:P38398
# Sequence (P38398 whole entry): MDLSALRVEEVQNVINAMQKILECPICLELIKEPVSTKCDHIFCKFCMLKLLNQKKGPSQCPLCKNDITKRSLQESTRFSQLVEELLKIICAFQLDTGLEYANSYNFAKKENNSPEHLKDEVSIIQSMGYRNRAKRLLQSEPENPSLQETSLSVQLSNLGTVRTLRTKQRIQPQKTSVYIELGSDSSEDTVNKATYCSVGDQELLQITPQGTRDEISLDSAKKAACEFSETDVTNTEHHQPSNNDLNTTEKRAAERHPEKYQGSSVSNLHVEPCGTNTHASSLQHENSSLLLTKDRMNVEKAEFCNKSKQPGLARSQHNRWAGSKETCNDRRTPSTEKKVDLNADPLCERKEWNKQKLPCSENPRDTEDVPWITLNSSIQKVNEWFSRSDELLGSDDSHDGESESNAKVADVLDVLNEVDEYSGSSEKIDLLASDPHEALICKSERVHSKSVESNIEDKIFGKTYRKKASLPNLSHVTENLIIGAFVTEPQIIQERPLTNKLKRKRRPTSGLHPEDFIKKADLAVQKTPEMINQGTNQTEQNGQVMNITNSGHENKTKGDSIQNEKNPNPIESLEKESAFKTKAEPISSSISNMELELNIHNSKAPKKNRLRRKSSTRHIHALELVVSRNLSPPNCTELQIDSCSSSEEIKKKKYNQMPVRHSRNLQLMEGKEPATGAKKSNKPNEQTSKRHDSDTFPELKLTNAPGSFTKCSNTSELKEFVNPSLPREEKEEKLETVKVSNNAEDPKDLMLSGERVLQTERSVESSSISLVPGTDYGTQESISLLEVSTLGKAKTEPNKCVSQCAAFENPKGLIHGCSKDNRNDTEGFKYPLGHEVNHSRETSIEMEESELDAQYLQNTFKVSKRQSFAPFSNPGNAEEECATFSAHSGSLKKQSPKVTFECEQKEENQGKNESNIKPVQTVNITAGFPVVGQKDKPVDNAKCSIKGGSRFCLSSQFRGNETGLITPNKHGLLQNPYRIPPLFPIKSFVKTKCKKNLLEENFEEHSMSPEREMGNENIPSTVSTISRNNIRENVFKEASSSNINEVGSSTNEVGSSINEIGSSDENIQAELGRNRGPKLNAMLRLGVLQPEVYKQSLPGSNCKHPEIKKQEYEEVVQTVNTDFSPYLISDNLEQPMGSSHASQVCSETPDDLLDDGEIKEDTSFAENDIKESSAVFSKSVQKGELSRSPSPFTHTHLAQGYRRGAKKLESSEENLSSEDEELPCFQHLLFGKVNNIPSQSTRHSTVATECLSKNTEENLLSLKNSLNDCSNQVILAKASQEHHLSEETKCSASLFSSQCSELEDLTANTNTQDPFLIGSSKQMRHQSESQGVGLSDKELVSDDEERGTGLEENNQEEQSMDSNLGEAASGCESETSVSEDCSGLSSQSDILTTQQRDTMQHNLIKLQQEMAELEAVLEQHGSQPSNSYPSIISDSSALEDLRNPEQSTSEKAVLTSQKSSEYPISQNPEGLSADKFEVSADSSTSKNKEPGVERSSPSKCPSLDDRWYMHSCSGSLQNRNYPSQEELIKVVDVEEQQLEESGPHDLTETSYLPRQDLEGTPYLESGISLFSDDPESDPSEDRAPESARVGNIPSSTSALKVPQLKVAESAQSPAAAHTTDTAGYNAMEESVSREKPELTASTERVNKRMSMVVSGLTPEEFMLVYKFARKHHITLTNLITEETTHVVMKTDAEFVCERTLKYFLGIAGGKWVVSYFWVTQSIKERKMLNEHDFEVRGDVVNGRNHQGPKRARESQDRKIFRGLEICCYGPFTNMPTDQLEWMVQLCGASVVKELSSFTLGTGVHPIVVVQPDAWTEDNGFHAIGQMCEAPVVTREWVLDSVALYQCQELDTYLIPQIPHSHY
# experimentNotes: Affinity Biochemical interaction: (ITC) EUB0002518a BRCA1
pKd: −log10 of the molar value.

>  <smiles>
O=C(CNC(=O)[C@H](COP(=O)(O)O)NC(=O)CCc1c[nH]c2ccccc12)NCCCCc1ccccc1

>  <pKd>
6.52

$$$$

###

# target: sn-1-specific diacylglycerol lipase ABHD11 (Homo sapiens, UniProt Q8NFV4)
# Sequence (Q8NFV4 whole entry): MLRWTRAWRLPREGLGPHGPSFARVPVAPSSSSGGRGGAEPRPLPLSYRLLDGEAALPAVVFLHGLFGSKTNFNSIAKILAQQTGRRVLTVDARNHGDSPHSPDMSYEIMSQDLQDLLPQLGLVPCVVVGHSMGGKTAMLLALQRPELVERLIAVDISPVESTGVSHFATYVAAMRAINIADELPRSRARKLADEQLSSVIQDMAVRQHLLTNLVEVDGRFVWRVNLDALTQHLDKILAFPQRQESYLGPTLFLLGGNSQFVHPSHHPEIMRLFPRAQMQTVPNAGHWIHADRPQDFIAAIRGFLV
# experimentNotes: Affinity Biochemical interaction: (fluorescence-based biochemical gel-based Activity-Based Protein Profiling (ABPP)) EUB0002643a ABHD11
quantityMeasured: IC50

>  <compound>
CCC1CCCCN1C(=O)n1ncc(C(O)(c2ccccc2)c2ccccc2)n1 (stereo unspecified)

>  <measValue>
15 nM

$$$$

###

# target: Caspase-8 (Homo sapiens)
# Sequence (Q14790 217-374 limits assumed): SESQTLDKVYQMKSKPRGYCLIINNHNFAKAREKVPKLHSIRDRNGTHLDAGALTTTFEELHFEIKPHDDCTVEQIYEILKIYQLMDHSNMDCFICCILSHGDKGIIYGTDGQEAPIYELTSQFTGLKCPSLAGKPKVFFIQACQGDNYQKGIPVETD
# Sequence (Q14790 385-479 limits assumed): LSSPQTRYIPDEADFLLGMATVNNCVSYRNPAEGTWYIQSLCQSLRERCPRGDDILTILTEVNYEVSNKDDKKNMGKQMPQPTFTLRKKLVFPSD
# experimentNotes: Affinity Biochemical interaction: (enzymatic assay (fluorogenic substrate cleavage)) EUB0002173aAD CASP8
# Assay type: functional
# Parameters: mode of action Inhibitor, recommended concentration 1 uM
pKi: −log10 of the molar value.
quantityMeasured: pKi

>  <smiles>
CC(=O)N[C@@H](CC(=O)O)C(=O)N[C@@H](CCC(=O)O)C(=O)N[C@H](C(=O)N[C@H](C=O)CC(=O)O)C(C)C

>  <measValue>
9.04

$$$$

###

# target: Bromodomain testis-specific protein (Homo sapiens, UniProt Q58F21)
# experimentNotes: Affinity Biochemical interaction: (BROMOscan assay) EUB0002282a BRDT
pKd: −log10 of the molar value.

>  <smiles>
Cc1cc(-c2ccc3nc(C4CCOCC4)n(CCOC(F)(F)F)c3c2)cn(C)c1=O

>  <target>
Bromodomain testis-specific protein (Homo sapiens, UniProt Q58F21)

>  <pKd>
8.51

$$$$

###

# target: Ubiquitin carboxyl-terminal hydrolase 1 (Homo sapiens, UniProt O94782)
# Sequence (O94782 whole entry): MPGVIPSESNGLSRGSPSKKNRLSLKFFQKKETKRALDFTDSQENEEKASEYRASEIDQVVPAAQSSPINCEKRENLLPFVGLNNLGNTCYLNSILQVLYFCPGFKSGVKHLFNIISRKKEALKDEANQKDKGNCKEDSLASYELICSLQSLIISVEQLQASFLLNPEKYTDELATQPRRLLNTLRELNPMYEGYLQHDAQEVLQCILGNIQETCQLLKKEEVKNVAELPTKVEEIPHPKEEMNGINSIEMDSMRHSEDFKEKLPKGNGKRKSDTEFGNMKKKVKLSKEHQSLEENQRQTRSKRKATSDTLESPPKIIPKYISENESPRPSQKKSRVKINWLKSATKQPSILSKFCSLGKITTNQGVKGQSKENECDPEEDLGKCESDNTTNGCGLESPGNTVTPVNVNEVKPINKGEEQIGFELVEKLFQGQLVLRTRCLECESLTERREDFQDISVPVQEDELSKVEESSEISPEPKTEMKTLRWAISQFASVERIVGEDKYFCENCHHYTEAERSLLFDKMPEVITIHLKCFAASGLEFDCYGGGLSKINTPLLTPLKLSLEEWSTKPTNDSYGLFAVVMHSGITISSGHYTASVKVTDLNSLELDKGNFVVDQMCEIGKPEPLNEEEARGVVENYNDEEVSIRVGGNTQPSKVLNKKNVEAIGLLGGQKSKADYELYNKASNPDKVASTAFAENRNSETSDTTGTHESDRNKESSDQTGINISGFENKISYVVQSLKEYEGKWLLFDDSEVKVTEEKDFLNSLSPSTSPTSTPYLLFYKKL
# experimentNotes: Affinity Biochemical interaction: (Ubiquitin-rhodamine 110 Assay for USP1 activity) EUB0002793a USP1
# Assay type: functional
# Parameters: mode of action Inhibitor, recommended concentration 1 uM
quantityMeasured: IC50

>  <smiles>
CC(C)c1c(F)cccc1-c1ncc2[nH]c(=O)n(Cc3ccc(-c4nc(C(F)(F)F)cn4C)cc3)c2n1

>  <measValue>
< 50 nM

$$$$

# credit: ChEMBL document CHEMBL5723035
